Each record here notes measured combination Emax.
# System: DMS-273 (Small Cell Lung Carcinoma)
# assay: combination Emax (second highest fraction inhibited in the dose matrix, 72 h); higher = more inhibition; extreme values may be limits of the assay
property_name: combination Emax

| compound | result |
| --- | --- |
| Cc1cc2ncnn2cc1Nc1ncc2c(n1)n(C1CCOCC1)c(=O)n2C [AZD7648] + C[C@@H]1COCCN1C2=NC(=NC(=C2)C3(CC3)[S@](=N)(=O)C)C4=C5C=CNC5=NC=C4 [AZD6738] (first compound max 10 µM, 7x7, partner max 10 µM) | 0.788 |
| CN(C)CCCOc1ccc(-c2ccc3ncc4c(c3c2)n(C2CCOCC2)c(=O)n4C)cn1 [AZD0156] + C[C@@H]1COCCN1C2=NC(=NC(=C2)C3(CC3)[S@](=N)(=O)C)C4=C5C=CNC5=NC=C4 [AZD6738] (first compound max 1 µM, 7x7, partner max 10 µM) | 0.834 |

###

Entries and their combination Emax values follow.
# Test system: TE-5 (Esophageal Squamous Cell Carcinoma)
# assay: combination Emax (second highest fraction inhibited in the dose matrix, 72 h); higher = more inhibition; extreme values may be limits of the assay

| molecule | combination Emax |
| --- | --- |
| COc1cccc(OCCCN)c1-c1cc(Nc2cnc(C#N)cn2)n[nH]1 [Prexasertib] + C=CCn1c(=O)c2cnc(Nc3ccc(N4CCN(C)CC4)cc3)nc2n1-c1cccc(C(C)(C)O)n1 [AZD1775] (first compound max 1 µM, partner max 1 µM) | 0.625 |
| Cc1nc(Nc2ncc(C(=O)Nc3c(C)cccc3Cl)s2)cc(N2CCN(CCO)CC2)n1 [Dasatinib] + CC(=O)Nc1cccc(-n2c(=O)n(C3CC3)c(=O)c3c(Nc4ccc(I)cc4F)n(C)c(=O)c(C)c32)c1 [Trametinib] (first compound max 2 µM, 7x7, partner max 1 µM) | 0.322 |
| CN(CCO)CC[C@H](CSc1ccccc1)Nc1ccc(S(=O)(=O)NC(=O)c2ccc(N3CCC([C@@H](O)c4ccccc4-c4ccc(Cl)cc4)CC3)cc2)cc1S(=O)(=O)C(F)(F)F [AZD4320] + Nc1ccn([C@@H]2O[C@H](CO)[C@@H](O)C2(F)F)c(=O)n1 [Gemcitabine] (first compound max 1 µM, 7x7, partner max 0.3 µM) | 0.875 |

###

Recorded Bliss excess, one value per entry.
# Test system: CAL-78 (Chondrosarcoma)
# assay: Bliss excess, mean over the matrix (fraction); higher = more synergy

| compound | Bliss excess |
| --- | --- |
| Cc1cc2ncnn2cc1Nc1ncc2c(n1)n(C1CCOCC1)c(=O)n2C [AZD7648] + O=C(c1cc(Cc2n[nH]c(=O)c3ccccc23)ccc1F)N1CCN(C(=O)C2CC2)CC1 [Olaparib] (first compound max 10 µM, 7x7, partner max 10 µM) | -0.0726 |
| CN(CCO)CC[C@H](CSc1ccccc1)Nc1ccc(S(=O)(=O)NC(=O)c2ccc(N3CCC([C@@H](O)c4ccccc4-c4ccc(Cl)cc4)CC3)cc2)cc1S(=O)(=O)C(F)(F)F [AZD4320] + CCN(CCO)CCCOc1ccc2c(Nc3cc(CC(=O)Nc4cccc(F)c4)[nH]n3)ncnc2c1 [AZD2811] (first compound max 1 µM, 7x7, partner max 1 µM) | 0.117 |
| Cc1c2c(nn1C)CSCc1cc(n(C)n1)CSc1cc(c3ccccc3c1)OCCCc1c(C(=O)O)n(C)c3c-2c(Cl)ccc13 [AZD5991] + C[C@@H](Nc1cc(F)cc(F)c1)c1cc(C(=O)N(C)C)cc2c(=O)cc(N3CCOCC3)oc12 [AZD8186] (first compound max 1 µM, 7x7, partner max 3 µM) | -0.0799 |

###

Entries and their Bliss excess
# Tested on: SW1088 (Low Grade Glioma)
# assay: Bliss excess, mean over the matrix (fraction); higher = more synergy

| compound | Bliss excess |
| --- | --- |
| Cn1cnc2c(F)c(Nc3ccc(Br)cc3Cl)c(C(=O)NOCCO)cc21 [Selumetinib] + C=CCn1c(=O)c2cnc(Nc3ccc(N4CCN(C)CC4)cc3)nc2n1-c1cccc(C(C)(C)O)n1 [AZD1775] (first compound max 10 µM, partner max 1 µM) | -0.0468 |
| C[C@@H](Nc1cc(F)cc(F)c1)c1cc(C(=O)N(C)C)cc2c(=O)cc(N3CCOCC3)oc12 [AZD8186] + CC(=O)c1c(C)c2cnc(Nc3ccc(N4CCNCC4)cn3)nc2n(C2CCCC2)c1=O [Palbociclib] (first compound max 10 µM, 7x7, partner max 10 µM) | 0.0658 |
| CS(=O)(=O)CCNCc1ccc(-c2ccc3ncnc(Nc4ccc(OCc5cccc(F)c5)c(Cl)c4)c3c2)o1 [Lapatinib] + C[C@@H](Oc1cc(-c2cnn(C3CCNCC3)c2)cnc1N)c1c(Cl)ccc(F)c1Cl [Crizotinib] (first compound max 10 µM, 7x7, partner max 10 µM) | -0.0612 |
| Cc1cc2ncnn2cc1Nc1ncc2c(n1)n(C1CCOCC1)c(=O)n2C [AZD7648] + O=C(c1cc(Cc2n[nH]c(=O)c3ccccc23)ccc1F)N1CCN(C(=O)C2CC2)CC1 [Olaparib] (first compound max 10 µM, 7x7, partner max 10 µM) | -0.067 |
| Cc1cc2ncnn2cc1Nc1ncc2c(n1)n(C1CCOCC1)c(=O)n2C [AZD7648] + C=CCn1c(=O)c2cnc(Nc3ccc(N4CCN(C)CC4)cc3)nc2n1-c1cccc(C(C)(C)O)n1 [AZD1775] (first compound max 10 µM, partner max 1 µM) | -0.0479 |
| CC(=O)c1c(C)c2cnc(Nc3ccc(N4CCNCC4)cn3)nc2n(C2CCCC2)c1=O [Palbociclib] + Cc1c2c(nn1C)CSCc1cc(n(C)n1)CSc1cc(c3ccccc3c1)OCCCc1c(C(=O)O)n(C)c3c-2c(Cl)ccc13 [AZD5991] (first compound max 10 µM, 7x7, partner max 1 µM) | 0.0212 |
| C[C@@H]1COCCN1c1cc(C2([S@](C)(=N)=O)CC2)nc(-c2ccnc3[nH]ccc23)n1 [AZD6738] + O=C(c1cc(Cc2n[nH]c(=O)c3ccccc23)ccc1F)N1CCN(C(=O)C2CC2)CC1 [Olaparib] (first compound max 10 µM, 7x7, partner max 10 µM) | 0.0087 |
| Cc1c2c(nn1C)CSCc1cc(n(C)n1)CSc1cc(c3ccccc3c1)OCCCc1c(C(=O)O)n(C)c3c-2c(Cl)ccc13 [AZD5991] + Nc1ccn([C@@H]2O[C@H](CO)[C@@H](O)C2(F)F)c(=O)n1 [Gemcitabine] (first compound max 1 µM, 7x7, partner max 0.3 µM) | -0.0666 |
| Cc1c2c(nn1C)CSCc1cc(n(C)n1)CSc1cc(c3ccccc3c1)OCCCc1c(C(=O)O)n(C)c3c-2c(Cl)ccc13 [AZD5991] + CC(=O)O[C@H]1C(=O)[C@@]2(C)[C@H]([C@H](OC(=O)c3ccccc3)[C@]3(O)C[C@H](OC(=O)[C@H](O)[C@@H](NC(=O)c4ccccc4)c4ccccc4)C(C)=C1C3(C)C)[C@]1(OC(C)=O)CO[C@@H]1C[C@@H]2O [Paclitaxel] (first compound max 1 µM, 7x7, partner max 3 µM) | -0.0192 |
| Cn1cnc2c(F)c(Nc3ccc(Br)cc3Cl)c(C(=O)NOCCO)cc21 [Selumetinib] + CC(C)n1c(=O)n(C)c2cnc3cc(F)c(-c4ccc(OCCCN5CCCCC5)nc4)cc3c21 [AZD1390] (first compound max 10 µM, 7x7, partner max 0.3 µM) | -0.0368 |
| CN(C)CCCOc1ccc(-c2ccc3ncc4c(c3c2)n(C2CCOCC2)c(=O)n4C)cn1 [AZD0156] + O=C(c1cc(Cc2n[nH]c(=O)c3ccccc23)ccc1F)N1CCN(C(=O)C2CC2)CC1 [Olaparib] (first compound max 3 µM, partner max 3 µM) | 0.022 |
| CN(CCO)CC[C@H](CSc1ccccc1)Nc1ccc(S(=O)(=O)NC(=O)c2ccc(N3CCC([C@@H](O)c4ccccc4-c4ccc(Cl)cc4)CC3)cc2)cc1S(=O)(=O)C(F)(F)F [AZD4320] + CS(=O)(=O)CCNCc1ccc(-c2ccc3ncnc(Nc4ccc(OCc5cccc(F)c5)c(Cl)c4)c3c2)o1 [Lapatinib] (first compound max 1 µM, 7x7, partner max 10 µM) | -0.0544 |
| CC(=O)c1c(C)c2cnc(Nc3ccc(N4CCNCC4)cn3)nc2n(C2CCCC2)c1=O [Palbociclib] + Cn1cnc2c(F)c(Nc3ccc(Br)cc3Cl)c(C(=O)NOCCO)cc21 [Selumetinib] (first compound max 10 µM, 7x7, partner max 10 µM) | -0.0327 |

###

# System: NCI-H211 (Small Cell Lung Carcinoma)
# assay: Bliss excess, mean over the matrix (fraction); higher = more synergy
# Bliss excess per record follows

| compound | Bliss excess |
| --- | --- |
| Cn1cnc2c(F)c(Nc3ccc(Br)cc3Cl)c(C(=O)NOCCO)cc21 [Selumetinib] + C[C@@H]1COCCN1C2=NC(=NC(=C2)C3(CC3)[S@](=N)(=O)C)C4=C5C=CNC5=NC=C4 [AZD6738] (first compound max 10 µM, 7x7, partner max 10 µM) | -0.0285 |
| C=CCn1c(=O)c2cnc(Nc3ccc(N4CCN(C)CC4)cc3)nc2n1-c1cccc(C(C)(C)O)n1 [AZD1775] + Nc1ccn([C@@H]2O[C@H](CO)[C@@H](O)C2(F)F)c(=O)n1 [Gemcitabine] (first compound max 1 µM, partner max 0.3 µM) | 0.0129 |

These entries and their values trace back to the supplement of paper PMC11061612.
